- assaySystem: GalNAc3S(b1-4)GlcNAc
- testProtocol: glycan array binding signal (z-score within array); higher = stronger binding
- runParameters: glycan notation: IUPAC condensed, linker removed
This excerpt belongs to a sample that is enriched for the strongest signals.

{"binder": "pTFF2 (Sus scrofa), P01359 (protein) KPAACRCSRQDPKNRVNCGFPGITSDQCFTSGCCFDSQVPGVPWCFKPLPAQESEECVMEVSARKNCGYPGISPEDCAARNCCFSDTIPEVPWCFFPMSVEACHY", "glycan array binding signal (z-score)": 2.64}
{"binder": "cFel (Cyprinus carpio), P68512 (protein) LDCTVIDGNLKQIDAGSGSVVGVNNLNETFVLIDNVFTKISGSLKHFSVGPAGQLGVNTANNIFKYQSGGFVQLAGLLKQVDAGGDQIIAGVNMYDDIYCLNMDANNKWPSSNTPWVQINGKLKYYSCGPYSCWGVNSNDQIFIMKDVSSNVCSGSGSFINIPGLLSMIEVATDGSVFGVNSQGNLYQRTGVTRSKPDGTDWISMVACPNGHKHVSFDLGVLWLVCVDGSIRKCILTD", "glycan array binding signal (z-score)": -0.547}
{"binder": "CALR truncated at D342 (Homo sapiens) (protein) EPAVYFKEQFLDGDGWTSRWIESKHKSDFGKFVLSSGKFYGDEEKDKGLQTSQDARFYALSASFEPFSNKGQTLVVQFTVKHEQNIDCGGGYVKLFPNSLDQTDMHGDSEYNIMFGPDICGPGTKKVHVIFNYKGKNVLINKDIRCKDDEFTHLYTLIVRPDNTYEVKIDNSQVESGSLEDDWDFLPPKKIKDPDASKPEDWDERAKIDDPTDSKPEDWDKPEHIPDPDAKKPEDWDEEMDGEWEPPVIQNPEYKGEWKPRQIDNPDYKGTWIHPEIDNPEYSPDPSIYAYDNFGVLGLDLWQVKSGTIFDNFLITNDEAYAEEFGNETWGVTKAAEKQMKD", "glycan array binding signal (z-score)": 1.07}
